Target: T1, GFP-9S library array, motif 4 ND N98P;D124F (synthetic construct, N98P;D124F)
T1 chain: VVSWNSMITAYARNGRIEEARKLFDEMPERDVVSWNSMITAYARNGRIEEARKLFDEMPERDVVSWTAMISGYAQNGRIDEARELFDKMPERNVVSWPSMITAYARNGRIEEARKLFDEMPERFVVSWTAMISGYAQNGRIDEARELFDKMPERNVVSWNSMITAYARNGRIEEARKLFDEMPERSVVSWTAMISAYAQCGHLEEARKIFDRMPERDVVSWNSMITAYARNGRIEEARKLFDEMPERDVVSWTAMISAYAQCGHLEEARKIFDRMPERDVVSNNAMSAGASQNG
Assay: high-throughput RNA pulldown from lysate on Ni-NTA beads; HRP: 50 mM Tris pH 8, 150 mM NaCl, 1 mM beta-mercaptoethanol, 50 ug/ml BSA, 3 ug/ml yeast RNA, 0.5% heparin; ITC and FP: Tris pH 8, 200 mM KCl, 5% glycerol; MST: 50 mM Tris pH 8, 200 mM NaCl, 1 mM DTT, BSA, heparin, 0.05% Tween 20
Conditions: tags: N-terminal His-eGFP; label: 5' IRDye 800CW
measurement name: Kd (nM)
I only need the number, in nM, no unit after it.

{"columns": ["binder", "unit symbol", "Kd"],
 "data": [
  ["AUUAAACGUGA (ssRNA) [IR-rpoA-A]", "nM", 245]
]}

Attention now shifts to the item below.
response.value for AUUAUACGUGA (ssRNA) [IR-rpoA-U] (field: Kd) = 290

Origin of values: paper PMC8809517
